- System: Nrf2 (ARE-luciferase reporter) in MCF7/ARE-D3 cells
- test name: Nrf2 activation cell-based assay, ARE-luciferase reporter, MCF7/ARE-D3 cell line
- Design: species or system Human
- reported conditions: 24 hr stimulation, luciferase fold change over DMSO control
Counter-ions that a name gives are not always drawn.
Would you kindly list Maximum Nrf2 Activation Fold Change for each of these compounds?
Give bare numbers.

Reference set (3 entries):
>>> print(df.to_string())
                                   compound  recorded_result
0  COC(=O)/C=C/C(=O)O[Si](C)(C)OC(=O)/C=C/C(=O)OC [Compound 11]               97
1  COC(=O)/C=C/C(=O)OC[Si](OC)(OC)OC [Compound 12]               49
2  COC(=O)/C=C/C(=O)OC [DMF, dimethyl fumarate, reference compound]               24

Turning now to a further record.
**Query** Determine from records and report Maximum Nrf2 Activation Fold Change for COC(=O)/C=C/C(=O)O [MMF, monomethyl fumarate, reference compound]
**Result** 56
